Tested on: 1N4R p-tau
Construct: made in house; host or cells: E. coli (PIMAX system)
EXPERIMENTAL PROTOCOL: p-tau aggregation modulator screen of 1280-compound library (ThS fluorescence net change over 16 h);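 further: 30 µM compound with 6 µM p-tau over 16 h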
Format: biochemical
STUDY CONDITIONS: library screen, ThS fluorescence net change over 16 h with p-tau
Where a name gives a salt, the structure may show the parent alone.
# ThS net change per record follows
Answer field: number only, no words.

The examples below pair each entry with its known result.
CN(C)CCCOc1nn(Cc2ccccc2)c2ccccc12 [Benzydamine hydrochloride] : 310
CCCCOc1cc(C(=O)NCCN(CC)CC)c2ccccc2n1 : 296
CC(=O)c1ccc2c(c1)N(CCCN(C)C)c1ccccc1S2.O=C(O)/C=C\C(=O)O [Acetopromazine maleate salt] : 267
O=C1C(O)=C([C@H]2CC[C@H](c3ccc(Cl)cc3)CC2)C(=O)c2ccccc21 : 266
C=C1/C(=C\C=C2/CCC[C@]3(C)[C@@H]([C@H](C)CCCC(C)C)CC[C@@H]23)C[C@@H](O)C[C@@H]1O : 284

Specify measured ThS net change for CC(CCc1ccc(O)cc1)NCCc1ccc(O)c(O)c1 (centres unmarked) [Dobutamine hydrochloride] .
257

Read the entry CC1CCc2cc(F)cc3c(=O)c(C(=O)O)cn1c23 (centres unmarked) and write its reported ThS net change.
303

Consider the compound CN(Cc1cnc2nc(N)nc(N)c2n1)c1ccc(C(=O)N[C@@H](CCC(=O)O)C(=O)O)cc1 [Methotrexate] . State its measured ThS net change.
326
